Each entry below carries its reported DC50.
test.system: Androgen Receptor (Homo sapiens, UniProt P10275)
Construct: endogenous in cells; host or cells: VCaP cells
Sequence (P10275 whole entry): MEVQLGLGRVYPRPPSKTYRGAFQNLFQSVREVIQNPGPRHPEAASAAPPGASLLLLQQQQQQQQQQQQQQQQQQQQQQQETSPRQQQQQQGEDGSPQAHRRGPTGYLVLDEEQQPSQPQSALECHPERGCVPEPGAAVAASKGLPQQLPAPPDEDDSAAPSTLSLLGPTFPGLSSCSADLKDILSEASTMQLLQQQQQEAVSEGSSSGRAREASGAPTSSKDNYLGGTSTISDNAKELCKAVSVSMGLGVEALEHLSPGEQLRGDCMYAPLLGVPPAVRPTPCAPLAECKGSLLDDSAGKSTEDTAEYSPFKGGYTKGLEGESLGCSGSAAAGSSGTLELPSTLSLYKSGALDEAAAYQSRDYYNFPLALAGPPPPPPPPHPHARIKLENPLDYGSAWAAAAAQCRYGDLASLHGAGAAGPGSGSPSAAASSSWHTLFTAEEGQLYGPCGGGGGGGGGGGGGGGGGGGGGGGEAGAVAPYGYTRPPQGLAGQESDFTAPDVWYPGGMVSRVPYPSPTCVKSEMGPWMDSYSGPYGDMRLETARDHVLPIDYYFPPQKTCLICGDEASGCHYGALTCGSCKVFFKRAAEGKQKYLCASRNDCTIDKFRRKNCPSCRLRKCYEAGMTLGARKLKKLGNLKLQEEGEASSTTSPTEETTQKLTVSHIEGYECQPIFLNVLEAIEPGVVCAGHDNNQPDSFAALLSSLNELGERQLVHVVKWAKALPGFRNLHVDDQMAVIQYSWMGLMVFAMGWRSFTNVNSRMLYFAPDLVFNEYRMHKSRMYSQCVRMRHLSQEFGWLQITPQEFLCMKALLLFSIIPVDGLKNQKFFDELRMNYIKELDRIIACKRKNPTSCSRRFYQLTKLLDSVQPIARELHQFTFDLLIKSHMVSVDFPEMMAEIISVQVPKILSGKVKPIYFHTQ
protocol.text: Androgen Receptor ELISA assay (PathScan AR ELISA) in VCaP cells: AR degradation, Dmax and DC50
Type: cell-based
condition.parameters: read-out: VCaP DC50; VCaP cells; Table 34

Guide cases for DC50, answers given:
smiles_notation=Cc1ncsc1-c1ccc([C@H](C)NC(=O)[C@@H]2C[C@@H](O)CN2C(=O)[C@@H](NC(=O)COCCCCOCCCCOc2ccc(N3C(=S)N(c4ccc(C#N)c(C(F)(F)F)c4)C(=O)C3(C)C)cc2)C(C)(C)C)cc1 value="< 50 nM"
smiles_notation=CCOC(=O)c1ncsc1-c1ccc(CNC(=O)[C@@H]2C[C@@H](O)CN2C(=O)[C@@H](NC(=O)COCCCCOc2ccc(-c3ccc(N4C(=S)N(c5ccc(C#N)c(C(F)(F)F)c5)C(=O)C4(C)C)cc3)cc2)C(C)(C)C)cc1 value="< 50 nM"
smiles_notation=Cc1ncsc1-c1ccc(CNC(=O)[C@@H]2C[C@@H](O)CN2C(=O)[C@H](C(C)C)N2CC(OCCOCCOc3ccc(N4C(=S)N(c5ccc(C#N)c(C(F)(F)F)c5)C(=O)C4(C)C)cc3)=CC2=O)cc1 value="51 to 500 nM"
smiles_notation=Cc1ncsc1-c1ccc(CNC(=O)[C@@H]2C[C@@H](O)CN2C(=O)[C@@H](NC(=O)COCCCCOCCCCOc2cccc(N3C(=S)N(c4ccc(C#N)c(C(F)(F)F)c4)C(=O)C3(C)C)c2)C(C)(C)C)cc1 value="< 50 nM"
smiles_notation=Cc1ncsc1-c1ccc(CNC(=O)[C@@H]2C[C@@H](O)CN2C(=O)[C@@H](NC(=O)CCCOCCCOCCOc2ccc(N3C(=S)N(c4ccc(C#N)c(C(F)(F)F)c4)C(=O)C3(C)C)cc2)C(C)(C)C)cc1 value="51 to 500 nM"
smiles_notation=CC(C)(C)[C@H](NC(=O)COCCCOCCCCOc1ccc(N2C(=S)N(c3ccc(C#N)c(C(F)(F)F)c3)C(=O)C2(C)C)cc1)C(=O)N1C[C@H](O)C[C@H]1C(=O)NCc1ccc(-c2cn[nH]c2)cc1 value="< 50 nM"

Request: Record request: DC50 value, item `CC(C)(C)[C@H](NC(=O)COCCCOCCCCCOc1ccc(N2C(=S)N(c3ccc(C#N)c(Cl)c3)C(=O)C2(C)C)cc1)C(=O)N1C[C@H](O)C[C@H]1C(=O)NCc1ccc(-c2cnco2)cc1`
Response: < 50 nM

Request: Look up DC50: `Cc1ncsc1-c1ccc(CNC(=O)[C@@H]2C[C@@H](O)CN2C(=O)[C@@H](NC(=O)COCCCOCCCCNc2ccc(N3C(=S)N(c4ccc(C#N)c(C(F)(F)F)c4)C(=O)C3(C)C)cc2)C(C)(C)C)cc1`
Response: < 50 nM

Request: What value of DC50 has been recorded for this entry: `Cc1ncsc1-c1ccc(CNC(=O)[C@@H]2C[C@@H](O)CN2C(=O)[C@@H](NC(=O)COCC#CCOCCOc2ccc(N3C(=S)N(c4ccc(C#N)c(C(F)(F)F)c4)C(=O)C3(C)C)cc2)C(C)(C)C)cc1`
Response: < 50 nM

* * *

test.system: Androgen Receptor (Homo sapiens, UniProt P10275)
Construct: endogenous in cells; host or cells: VCaP cells
protocol.text: Androgen Receptor ELISA assay (PathScan AR ELISA) in VCaP cells: AR degradation, Dmax and DC50
Assay type: cell-based
condition.parameters: VCaP, read-out: VCaP Dmax (%)
endpoint.name: Dmax

smiles_notation=CC(C)(C)[C@H](NC(=O)COCCCOCCCCOc1ccc(N2C(=S)N(c3ccc(C#N)c(C(F)(F)F)c3)C(=O)C2(C)C)cc1)C(=O)N1C[C@H](O)C[C@H]1C(=O)NCc1ccc(-c2cn[nH]c2)cc1 value="51 to 70%"

Request: Dmax for `Cc1ncsc1-c1ccc(CNC(=O)[C@@H]2C[C@@H](O)CN2C(=O)[C@@H](NC(=O)COCCOCCOc2ccc(-c3ccc(N4C(=S)N(c5ccc(C#N)c(C(F)(F)F)c5)C(=O)C4(C)C)cc3)cc2)C(C)(C)C)cc1` ?
Response: 26 to 50%

Values from patent US11427548B2
